The measured values listed here are drawn from patent EP0840727B1.

- Protocol: Promoting excretion of 238Pu(IV) in mice by injected ligands
- Assay type: in vivo
- Recorded Conditions: ligand 30 µmol kg^-1 ip at 1 h after iv ^238Pu(IV) citrate; kill at 24 h; pooled samples
Property Measured: percent of injected ^238Pu at 24 h, tissues: kidneys

Compound	Measured Value
Cn1ccc(C(=O)NCCCCNC(=O)c2ccn(C)c(=O)c2O)c(O)c1=O [4-LI-Me-3,2-HOPO]	0.4% of injected ^238Pu
Cn1ccc(C(=O)NCCN(CCCCN(CCNC(=O)c2ccn(C)c(=O)c2O)CCNC(=O)c2ccn(C)c(=O)c2O)CCNC(=O)c2ccn(C)c(=O)c2O)c(O)c1=O [H(4,2)-Me-3,2-HOPO]	1.8% of injected ^238Pu
Cn1ccc(C(=O)NCCOCCNC(=O)c2ccn(C)c(=O)c2O)c(O)c1=O [5-LI-O-Me-3,2-HOPO]	0.2% of injected ^238Pu
Cn1ccc(C(=O)NCCCCCCNC(=O)c2ccn(C)c(=O)c2O)c(O)c1=O [6-LI-Me-3,2-HOPO]	0.5% of injected ^238Pu
Cn1ccc(C(=O)NCCCNC(=O)c2ccn(C)c(=O)c2O)c(O)c1=O [3-LI-Me-3,2-HOPO]	0.5% of injected ^238Pu
Cn1ccc(C(=O)NCCN(CCCN(CCNC(=O)c2ccn(C)c(=O)c2O)CCNC(=O)c2ccn(C)c(=O)c2O)CCNC(=O)c2ccn(C)c(=O)c2O)c(O)c1=O [H(3,2)-Me-3,2-HOPO]	1.2% of injected ^238Pu
Cc1c(CNC(=O)c2ccn(C)c(=O)c2O)c(C)c(CNC(=O)c2ccn(C)c(=O)c2O)c(C)c1CNC(=O)c1ccn(C)c(=O)c1O [ME-Me-3,2-HOPO]	0.9% of injected ^238Pu
Cn1ccc(C(=O)NCCN(CCNC(=O)c2ccn(C)c(=O)c2O)CCN(CCNC(=O)c2ccn(C)c(=O)c2O)CCNC(=O)c2ccn(C)c(=O)c2O)c(O)c1=O [H(2,2)-Me-3,2-HOPO]	1.3% of injected ^238Pu
Cn1ccc(C(=O)NCCN(CCNC(=O)c2ccn(C)c(=O)c2O)CCN(CC(=O)O)CC(=O)O)c(O)c1=O [TREN-bis(Me-3,2-HOPO)-bis acetic acid]	0.5% of injected ^238Pu
Cn1ccc(C(=O)NCCCCCNC(=O)c2ccn(C)c(=O)c2O)c(O)c1=O [5-LI-Me-3,2-HOPO]	0.3% of injected ^238Pu
Cn1ccc(C(=O)NCCN(CCNC(=O)c2ccn(C)c(=O)c2O)CCNC(=O)c2ccn(C)c(=O)c2O)c(O)c1=O [TREN-Me-3,2-HOPO]	0.6% of injected ^238Pu
